ASSAYED_TARGET: human orexin-1 receptor (Homo sapiens, UniProt O43613)
Construct: expressed in transfected cells; host or cells: CHO (Chinese hamster ovary) cells, kept under G418 selection
Sequence (O43613 whole entry): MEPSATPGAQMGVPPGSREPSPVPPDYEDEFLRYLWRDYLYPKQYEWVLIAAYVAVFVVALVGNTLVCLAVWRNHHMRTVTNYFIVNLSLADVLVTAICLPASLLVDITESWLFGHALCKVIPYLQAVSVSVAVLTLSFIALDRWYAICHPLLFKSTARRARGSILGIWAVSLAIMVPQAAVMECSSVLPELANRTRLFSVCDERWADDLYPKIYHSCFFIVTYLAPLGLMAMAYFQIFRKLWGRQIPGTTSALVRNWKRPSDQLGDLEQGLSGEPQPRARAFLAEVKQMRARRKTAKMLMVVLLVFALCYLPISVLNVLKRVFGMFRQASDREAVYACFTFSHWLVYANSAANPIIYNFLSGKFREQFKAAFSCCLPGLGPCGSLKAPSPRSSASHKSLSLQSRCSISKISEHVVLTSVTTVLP
TEST_DESCRIPTION: Intracellular calcium measurement (FLIPR Tetra), orexin receptor antagonistic activity, OX1
Format: cell-based
CONDITION_SET: CHO cells expressing human orexin-1 receptor, 3 nM orexin-A, conditions A
EXPERIMENTAL_ENDPOINT: IC50 (nM)
Enter your answer as a number in nM; do not include the unit.

Query: Item under review: COc1ccc(CCN(CC2CC2)C(=O)c2sc(C)nc2-c2ccc(C)cc2)cc1OC [Example 49] . Reported IC50?
Reply: 4230

Query: Item under review: COc1ccc(CCN(CC2CC2)C(=O)c2nc(C3CC3)sc2-c2ccccc2)cc1OC [Example 22] . Reported IC50?
Reply: 570

Query: Item under review: COc1ccc(C(O)CN(CC2CC2)C(=O)c2c(-c3ccccc3)nc3ccc(Cl)cn23)cc1OC (stereo not shown) [Example 97] . Reported IC50?
Reply: 4920

Query: Item under review: COc1ccc(CCN(CC2CC2)C(=O)c2nc(C)oc2-c2cccc(C(F)(F)F)c2)cc1OC [Example 43] . Reported IC50?
Reply: 3120

Query: Item under review: COc1cccc(-c2oc(C)nc2C(=O)N(CCc2ccc(OC)c(OC)c2)CC2CC2)c1 [Example 42] . Reported IC50?
Reply: 1010

Query: Item under review: CCc1ccc(-c2sc(C)nc2C(=O)N(CCc2ccc(OC)c(OC)c2)CC2CC2)cc1 [Example 20] . Reported IC50?
Reply: 2130

Query: Item under review: COc1ccc(CCN(CC2CC2)C(=O)c2nc(C)sc2-c2ccccc2)cc1OC [Example 18] . Reported IC50?
Reply: 925

Query: Item under review: COc1ccc(CCN(CC2CC2)C(=O)c2ncsc2-c2ccccc2F)cc1OC [Example 37] . Reported IC50?
Reply: 2690

Query: Item under review: COc1ccc(CCN(CC2CC2)C(=O)c2nc(N(C)C)sc2-c2cccc(C)c2)cc1OC [Example 30] . Reported IC50?
Reply: 206

Query: Item under review: COc1ccc(C(O)CN(CC2CC2)C(=O)c2nc(Br)sc2-c2cccc(C)c2)cc1OC (stereo not shown) [Example 56] . Reported IC50?
Reply: 697

----------
ASSAYED_TARGET: human orexin-1 receptor (Homo sapiens, UniProt O43613)
Construct: expressed in transfected cells; host or cells: CHO (Chinese hamster ovary) cells, kept under G418 selection
TEST_DESCRIPTION: Intracellular calcium measurement (FLIPR Tetra), orexin receptor antagonistic activity, OX1
Type: cell-based
CONDITION_SET: CHO cells expressing human orexin-1 receptor, 3 nM orexin-A, conditions B, normalized (*) using IC50 of on-plate reference compound
Flag rule - IC50 less than 400 nM flags t; the remaining entries get f.

Query: I wonder whether COc1nc(C(=O)N(CCc2c[nH]c3ccc(F)cc23)CC2CC2)c(-c2cccc(C)c2)s1 [Example 275] has IC50 below 400 nM. Can you tell?
Reply: t

Query: I wonder whether O=C(c1cncnc1-c1cccc(F)c1)N(CCc1c[nH]c2ccccc12)CC1CC1 [Example 510] has IC50 below 400 nM. Can you tell?
Reply: t

Query: I wonder whether COc1ccc(-c2cccnc2C(=O)N(CCc2c[nH]c3ccc(F)cc23)CC(F)F)cn1 [Example 317] has IC50 below 400 nM. Can you tell?
Reply: f

Query: I wonder whether CCC(=O)Nc1ccc(-c2sc(C)nc2C(=O)N(CCc2c[nH]c3ccccc23)CC2CC2)cc1 [Example 501] has IC50 below 400 nM. Can you tell?
Reply: t

Query: I wonder whether COc1ccc(-c2sc(C)nc2C(=O)N(CCc2c[nH]c3cc4c(cc23)OCO4)CC2CC2)cn1 [Example 382] has IC50 below 400 nM. Can you tell?
Reply: f

Query: I wonder whether COc1ccc2[nH]cc(CCN(CC3CC3)C(=O)c3cnc(C)nc3-c3ccccc3)c2c1C [Example 479] has IC50 below 400 nM. Can you tell?
Reply: f

Query: I wonder whether COc1ccc(-c2cccnc2C(=O)N(CCO)CCc2c[nH]c3ccc(F)cc23)cn1 [Example 318] has IC50 below 400 nM. Can you tell?
Reply: f

Query: I wonder whether COc1ccc(-c2cccnc2C(=O)N(CCc2c[nH]c3ccc(F)cc23)CC(N)=O)cn1 [Example 313] has IC50 below 400 nM. Can you tell?
Reply: f

Query: I wonder whether Cc1cccc(-c2sc(N)nc2C(=O)N(CCc2c[nH]c3cc(F)ccc23)CC2CC2)c1 [Example 233] has IC50 below 400 nM. Can you tell?
Reply: t

Query: I wonder whether COC(=O)CN(CCc1c[nH]c2ccc(F)cc12)C(=O)c1cnc(C)nc1-c1ccc(Cl)c(Cl)c1 [Example 604] has IC50 below 400 nM. Can you tell?
Reply: f

Sourced from patent US20110212968A1
